Origin of the recorded values: PubChem BioAssay AID1851

- TARGET_OR_SYSTEM: Cytochrome P450 2C9 (Homo sapiens)
- ASSAY_COMMENT: Cytochrome panel assay with activity outcomes
- CONDITION: recombinant CYP, pro-luciferin dealkylation, luminescence, p450-cyp2c9; series mostly up to 57.1 µM
Out of some 16,000 compounds screened, about 4,000 (25%) were called active. Roughly 26% stayed inconclusive and do not appear here. Calls come from the whole dose curve; as a rule, active = well fitted curve in the direction sought with a large enough effect; inconclusive = small, poorly fitted or top-dose-only effect, or effect the other way; inactive = no such curve, though single readings can be large or run the other way. These entries were drawn from the full list.
Classes to choose from: active, inactive

COc1ccc(C2=NOC(C(=O)NCCN3CCOCC3)C2)cc1 (configuration not stated) ... inactive
COc1ccc(-c2cn3c(C)c(C(=O)NCCN4CCOCC4)sc3n2)cc1 ... active
COc1cccc(NC(=S)N(CCc2nc3cc(C)c(C)cc3[nH]2)Cc2cccnc2)c1 ... active
CSc1nsc(SC)c1NC(=O)OCc1ccccc1 ... active
COc1ccc(-n2c(=O)c(-c3cn(C)c4ccccc34)nc3cnc(OC)nc32)cc1 ... inactive
CCN(CC)CCn1c(=S)[nH]c2cc3c(cc2c1=O)OCO3 ... inactive
Cc1ccc(NC(=S)NC(=O)c2c(-c3ccccc3Cl)noc2C)cc1 ... active
C#CCOC(=O)Nc1ccc(=O)n(Cc2c(Cl)cccc2Cl)c1 ... active
Cc1cccc(NC(=S)N(CCc2nc3cc(C)c(C)cc3[nH]2)Cc2cccnc2)c1 ... active
COC(=O)c1c(NC(=O)c2ccco2)sc2c1CCC2 ... active

-- ask So what was the verdict on Cc1noc(C)c1C(=O)N1CCC[C@@]2(CCN(Cc3cc(C(F)(F)F)cc(C(F)(F)F)c3)C2)C1 in this test?
-- reply inactive

-- ask How did this test come out for COc1ccc2cc3cc(C(=O)NCCCN4CCOCC4)oc3nc2c1 ?
-- reply inactive

-- ask Recorded test outcome, item O=C(CCCCCn1c(=S)[nH]c2cc3c(cc2c1=O)OCO3)N1CCN(C2CCCCC2)CC1
-- reply active

-- ask Fill in: this test's call for N=C(N)SCc1nc2ccccc2c(=O)n1-c1ccccc1Cl is ___
-- reply active

-- ask Tell me the assay call for CON1C(=O)C(=O)N(OC)C(C)(C)C1C (configuration not stated) please.
-- reply inactive
